- System: MOLT-4
- EXPERIMENT: NCI tumour cell line growth inhibition, 48 h
Counter-ions that a name gives are not always drawn. Activity calls are given as the source filed them. No stated cut-off is given here; in the data, active = GI50 up to about 1.1 µM and inactive = higher. Residues, ends and D or L forms follow the SMILES beside them. *: point of attachment. Tfa = O=C(C(F)(F)F)*
Possible outcomes: active, inactive

MOLECULE	CATEGORY_LABEL
COC(=O)C12C3C4C1C1C2C3C41C(=O)OC(C)(C)C (stereo not drawn)	inactive
C[C@]12CC[C@@H]3c4ccc(OP(=O)(O)O)cc4CC[C@H]3[C@@H]1CCC2=O	inactive
COc1ccccc1C1CC(=O)CC(c2ccccc2OC)C12C(=O)NC(=S)NC2=O (stereo not drawn)	inactive
COc1cc(C2C3=C(COC3=O)Oc3cc4c(cc32)OCO4)cc(OC)c1O (stereo not drawn)	active
[O-][n+]1c2cccc(O)c2[n+]([O-])c2cccc(O)c21	inactive
O=C(O)C1CCCCN1CCc1c[nH]c2ccccc12 (stereo not drawn)	inactive
Cc1ccc(S(=O)(=O)NC(=O)NCC(=O)NCC(=O)O)cc1	inactive
C=CCOC(=O)CC[N+]1=CCC(c2ccccc2)(c2ccccc2)O1	inactive
CCOC(=O)c1nc2ccc(OC)cc2c2c1Cc1ccccc1-2	inactive
Clc1ccc(OCCSCCCCCCCCCCSCCOc2ccc(Cl)cc2)cc1	inactive
CSc1nc2c(=O)n(-c3ccccc3)c(=S)n(-c3ccccc3)c2s1	inactive
CC(=O)NC1C(CO)O[C@@H]2OC(C)(C)O[C@H]12 (stereo partly drawn)	inactive
COc1ccccc1/C(=N\OCCC(=O)O)c1cccs1	inactive
Cn1ncc(=S)[nH]c1=S	inactive
Clc1ccc(N/N=C(\c2ccccc2)c2ccccn2)nc1	active
O=C(/C=C/c1ccccc1)Oc1ccc(C(=O)/C=C/c2ccc(Cl)cc2)cc1	inactive
COc1ccc(N2C(=O)c3c(c4[nH]c5ccccc5c4c4ccc(C(C)(C)C)cc34)C2=O)cc1	inactive
C=C(C(=O)O)[C@@H]1C[C@@H]2O[C@H]1CC(C)=CCC/C(C)=C/CC[C@@]2(C)O	inactive
O=C(ON=c1c2ccccc2ccc2ccccc12)c1ccccc1	inactive
COC(=O)C1=C(C)NC2=C(C(=O)c3ccccc32)C1c1cn(-c2ccccc2)nc1-c1ccccc1 (stereo not drawn)	inactive
O=C(O)CC(NC(=O)C(F)(F)F)C(=O)NC(Cc1ccc(O)cc1)C(=O)O (stereo not drawn) (Tfa-Asp-Tyr-OH; configuration not given here)	inactive
CC(=O)/C(=C/NC(=S)c1cccnc1)C(=O)Nc1ccccc1C	inactive
Cc1ccc(NCCN(C)C)c2c(=O)c3cc(O)ccc3sc12	active
COc1ccc(N2N=NN(C(C)C)/C2=C(/Cl)c2nnnn2-c2ccc(OC)cc2)cc1	inactive
COc1ccc(CC2Cc3ccccc3CC(=O)N2)cc1OC (stereo not drawn)	inactive
COC(=O)[C@H]1[C@H](C(=O)OC)[C@@H](C)c2c(ccc3c2[nH]c2ccccc23)[C@@H]1C	active
C=C(Cl)C(=C)CCC(Cl)C(C)(C)Cl (stereo not drawn)	inactive
COc1cc([C@@H]2c3cc4c(cc3[C@@H](NC(=O)c3cccc([N+](=O)[O-])c3)C3COC(=O)[C@@H]32)OCO4)cc(OC)c1O (stereo partly drawn)	active
CCOC(=O)CC[C@@H](NC(=O)c1ccc(NCc2ccc3nc(OC)c(OC)nc3c2)cc1)C(=O)OCC	inactive
C[C@]12CC[C@@H]3c4cc(I)c(O)cc4CC[C@H]3[C@@H]1CC[C@@H]2O	inactive
[N-]=[N+]=NC(c1cn(C2CC(O)C(CO)O2)c(=O)[nH]c1=O)C(I)I (stereo not drawn)	inactive
O=C(Nc1nnc(-c2ccc(Cl)cc2)o1)C(SC(=S)N1CCCCC1)c1ccccc1 (stereo not drawn)	inactive
Cc1cnc(-n2c(C)nc3cc(Cl)ccc3c2=O)s1	inactive
